- Tested on: cardiac action potentials
- assay_overview: Canine cardiac action potentials by electrocardiography and telemetry
- Type: in vivo
- assay_setup: dogs, oral gavage, post-dose period 1-6 hours, vs vehicle

{"smiles_entry": "CS(=O)(=O)c1ccc2c(c1)N(CCCN1CCC(C(=O)O)CC1)c1ccccc1S2", "QTc intervals": "no significant increases"}
{"smiles_entry": "C[C@@](Cc1ccc(O)c(O)c1)(NN)C(=O)O", "QTc intervals": "no significant increases"}
{"smiles_entry": "CS(=O)(=O)c1ccc2c(c1)N(CCCN1CCC(C(N)=O)CC1)c1ccccc1S2", "QTc intervals": "no significant increases"}
